The values you see were collected from patent US7713994B2.

target: cyclin D1/cdk 4 enzyme (Homo sapiens); construct: made in house; host or cells: Sf9 insect cells, recombinant baculovirus; assay: CDK4 ELISA kinase assay (phospho-Rb ser 795 detection); format: biochemical; details: In Vitro Enzyme Assay, cyclin D1/cdk 4, read-out: CDK4 IC50
Sequence (P11802 whole entry, species assumed): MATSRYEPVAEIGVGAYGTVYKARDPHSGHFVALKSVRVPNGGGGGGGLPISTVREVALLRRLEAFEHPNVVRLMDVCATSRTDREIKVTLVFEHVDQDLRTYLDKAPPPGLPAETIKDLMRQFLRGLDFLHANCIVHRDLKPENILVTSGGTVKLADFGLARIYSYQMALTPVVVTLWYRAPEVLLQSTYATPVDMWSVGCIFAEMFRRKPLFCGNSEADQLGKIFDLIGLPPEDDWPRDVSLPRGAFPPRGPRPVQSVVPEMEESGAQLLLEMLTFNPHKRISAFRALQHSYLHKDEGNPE
Sequence (P24385 whole entry partner, species assumed): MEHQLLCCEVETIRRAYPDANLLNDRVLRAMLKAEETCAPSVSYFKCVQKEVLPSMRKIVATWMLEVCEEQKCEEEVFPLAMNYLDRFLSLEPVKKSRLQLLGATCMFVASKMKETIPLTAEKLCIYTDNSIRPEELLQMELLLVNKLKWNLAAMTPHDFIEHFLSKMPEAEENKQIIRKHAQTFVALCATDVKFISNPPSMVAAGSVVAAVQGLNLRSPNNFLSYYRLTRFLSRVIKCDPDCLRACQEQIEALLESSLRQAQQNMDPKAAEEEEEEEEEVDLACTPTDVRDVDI
Reported IC50 is given for each of the following molecules.
Answer with a number only, understood to be in µM.

Any idea what its IC50 is? The molecule is NS(=O)(=O)c1ccc(CNC=C2C(=O)NC(=O)c3ccc(-c4cccc(C(=O)O)c4)cc32)cc1
13.8

Any idea what its IC50 is? The molecule is CC(C)(C)c1ccc2c(c1)/C(=C/NCc1ccn(-c3ccoc3)c(=O)c1)C(=O)NC2=O
0.03

Any idea what its IC50 is? The molecule is N#CCc1ccc(C=Cc2ccc3c(c2)C(=CNCc2ccc(O)c(O)c2)C(=O)NC3=O)cc1
0.29

Any idea what its IC50 is? The molecule is CN1CCN(c2ccc(NC=C3C(=O)NC(=O)c4ccc(-c5cccc(C=CC(=O)O)c5)cc43)cc2)CC1
2.9

Any idea what its IC50 is? The molecule is NCc1cccc(CNC=C2C(=O)NC(=O)c3ccccc32)c1
23.7

Any idea what its IC50 is? The molecule is NS(=O)(=O)c1ccc(CNC=C2C(=O)NC(=O)c3ccc(-c4ccc(Cl)cc4)cc32)cc1
1.48

Any idea what its IC50 is? The molecule is CN1CCN(c2ccc(NC=C3C(=O)NC(=O)c4ccc(-c5ccc[nH]5)cc43)cc2)CC1
0.64

Any idea what its IC50 is? The molecule is CN(C)Cc1cccc(-c2ccc(CN/C=C3\C(=O)NC(=O)c4ccc(I)cc43)cc2O)c1
0.01

====

test system: BT474; experiment: Cytotoxicity assay (SRB), BT474; type: cell-based; details: Homo sapiens, BT-474, 144 h, BT474 cells, 6 days, SRB; read-out: In Vitro Cellular Activity IC50 BT474
pIC50: −log10 of the molar value.
Class Condition met: pIC50 at least 5. Class Condition not met: pIC50 below 5.

Answered examples (8):
| STRUCTURE SMILES | GROUP LABEL |
| --- | --- |
| N#Cc1ccc(-c2ccc3c(c2)C(=CNCc2ccc(O)c(O)c2)C(=O)NC3=O)cc1 | Condition not met |
| Cc1cccc(-c2ccc3c(c2)C(=CNc2ccc(CC#N)cc2)C(=O)NC3=O)c1 | Condition not met |
| O=C1NC(=O)c2ccc(Br)cc2/C1=C/Nc1ccc(N2CCC(N3CCCC3)CC2)c(F)c1 | Condition met |
| O=C1NC(=O)c2ccc(-c3cc4ccccc4s3)cc2C1=CNCc1ccc(O)c(O)c1 | Condition not met |
| CN(C)CCNCC1CCN(c2ccc(N/C=C3\C(=O)NC(=O)c4ccc(I)cc43)cc2)CC1 | Condition met |
| CN(C)CCNC(=O)C1CCN(c2ccc(N/C=C3\C(=O)NC(=O)c4ccc(I)cc43)cc2)CC1 | Condition met |
| O=C1NC(=O)c2ccc(I)cc2/C1=C/NCc1ccc(-c2ccoc2)c(O)c1 | Condition met |
| O=C1NC(=O)c2ccc(I)cc2/C1=C/NCc1ccc(-c2cccnc2)c(O)c1 | Condition met |

Could you please find out whether NS(=O)(=O)c1ccc(CNC=C2C(=O)NC(=O)c3ccc(-c4cccc(F)c4)cc32)cc1 has pIC50 that meets 5 or exceeds it?
Condition not met

Could you please find out whether O=C1NC(=O)c2ccc(-c3ccc(OC(F)(F)F)cc3)cc2C1=CNCc1ccc(O)c(O)c1 has pIC50 that meets 5 or exceeds it?
Condition not met
